ASSAY SYSTEM: T1, human soluble ULBP6 haplotype 01 (hULBP6_01) (human, UniProt Q5VY80 27-218, limits assumed)
T1 construct: also called sULBP6_01
T1 chain: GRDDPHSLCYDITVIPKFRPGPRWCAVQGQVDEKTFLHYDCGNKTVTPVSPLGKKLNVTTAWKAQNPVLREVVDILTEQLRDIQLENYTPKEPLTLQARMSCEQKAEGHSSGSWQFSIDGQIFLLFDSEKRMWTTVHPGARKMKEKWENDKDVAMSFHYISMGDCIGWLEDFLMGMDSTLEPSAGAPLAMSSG
TEST SUMMARY: SPR (BIACORE);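 further: soluble human and cynomolgus NKG2D ligands injected as analytes in 3-fold dilution series spanning 0.01 to 50 nM at 37 °C, reference-subtracted sensorgrams fitted to a 1:1 Langmuir model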
MEASURED ENDPOINT: Kd (nM)
I only need the number, in nM, no unit after it.

// known answers, use as guide
[
  {
    "BINDER": "Humanized 1D4 (h1D4) (E-) (antibody, human IgG1, kappa, N297G, V domains shown, hIgG1 with N297G (effector negative)) VH: EIQLVQSGSELKKPGASVKVSCKASGYTFTEYPIHWVRQAPGQGFEWMGMIYTDTGEPTHAEEFKGRFVFSLDTSVSTAYLQISSLKAEDTAVYFCVRWYDGSSYIMDYWGQGTTVTVSS VL: DIQMTQSPSSLSASVGDRVTITCKASQDINSYLSWFQQKPGKSPKTLIYRANRLVDGVPSRFSGSGSGQDYTFTISSLQPEDIATYYCLQYDEFPLTFGGGTKVEIKR",
    "OBSERVED MEASUREMENT": 0.41
  },
  {
    "BINDER": "Humanized 6E1 (h6E1) (E-) (antibody, human IgG1, kappa, N297G, V domains shown, hIgG1 with N297G (effector negative)) VH: EVQLVQSGAEVKKPGASVKVSCKASGYTFTNYWMHWMRQAPGQGLEWLGRIHPSDSDTNYNQKFKGRATLTVDKSISTAYMELSRLRSDDTAVYYCAIEGTGKGYFDVWGRGTLVTVSS VL: DIQMTQSPSSLSASVGDRVTITCKASQDIYSYLSWFQQKPGKSPKTLIYRANRLVDGVPSRFSGSGSGQDFTLTISSLQPEDFATYYCLHYDEFPLTFGGGTKVEIKR",
    "OBSERVED MEASUREMENT": 4.38
  },
  {
    "BINDER": "Humanized 7B3 (h7B3) (E-) (antibody, human IgG1, kappa, N297G, V domains shown, hIgG1 with N297G (effector negative)) VH: EVQLVESGGGLVQPGGSLRLSCAASGFTFSTYGFHWVRQAPGKGLEWVAYISSNSGTIDYADTVKGRFTISRDNAKNSLYLQMNSLRAEDTAVYYCARQGYGFDNWGQGTTVTVSS VL: DIQLTQSPSSLSASVGDRVTITCSASSRVSYMNWYQQKPGKSPKIWVYGISNLASGVPSRFSGSGSGTDFTFTISSLQPEDIATYYCQQRSSHPLTFGGGTKVEIKR",
    "OBSERVED MEASUREMENT": 0.22
  }
]

Below: the item to evaluate.
[in] Reported Kd for Humanized 8E11 (h8E11) (E-) (antibody, human IgG1, kappa, N297G, V domains shown, hIgG1 with N297G (effector negative)) VH: EVQLVESGGGLVQPGGSLRLSCAASGFTFRTYGMHWVRQAPGKGLEWVAYISSGSGTIDYADTVKGRFTISRDNAKNSLYLQMNSLRAEDTAVYYCTRQTGAMDYWGQGTLVTVSS VL: EIVLTQSPATLSLSPGERATLSCSASSSVSYMNWYQQKPGQSPRLWIYGISNLASGVPARFSGSGSGTDFTLTISSLEPEDFAVYYCQQRSSHPLTFGGGTKVEIKR : what is it?
[out] 0.27
